- Tested on: Bel7402
- assayRemarks: MTT antiproliferative assay, Bel7402 cells
- Assay type: cell-based, human
- assayContext: Homo sapiens, Bel-7402; MTT, 48 h, means ± SD, n = 3
Give measured IC50 for each item. Keep answers brief.

compound="CC(C)=CCOc1ccc(/C=C2/C(=O)[C@]34[C@H](O)[C@H]2CC[C@H]3C23CO[C@]4(O)[C@@H](O)[C@@H]2C(C)(C)CC[C@@H]3O)cc1 [Compound 2p]" measuredquantity=IC50 measured="3.21 µM"
compound="CC1(C)CC[C@H](O)C23CO[C@](O)([C@@H](O)[C@H]12)[C@]12C(=O)/C(=C/c4ccc(Cl)cc4)[C@H](CC[C@@H]31)[C@H]2O [Compound 2e]" measuredquantity=IC50 measured="9.66 µM"
compound="CC1(C)CC[C@H](O)C23CO[C@](O)([C@@H](O)[C@H]12)[C@]12C(=O)/C(=C/c4ccc(O)cc4)[C@H](CC[C@@H]31)[C@H]2O [Compound 2x]" measuredquantity=IC50 measured="> 100 µM"
compound="CC1(C)CCC(O)C23COC(O)(C(O)C12)C12C(=O)C(=Cc4cccc(F)c4)C(CCC31)C2O (stereo not shown) [Compound 2b]" measuredquantity=IC50 measured="> 100 µM"
compound="CC1(C)CCC(O)C23COC(O)(C(O)C12)C12C(=O)C(=Cc4ccc5ccccc5c4)C(CCC31)C2O (stereo not shown) [Compound 2y]" measuredquantity=IC50 measured="51.2 µM"
compound="CC1(C)CC[C@H](O)C23CO[C@](O)([C@@H](O)[C@H]12)[C@]12C(=O)/C(=C/c4cccc(O)c4)[C@H](CC[C@@H]31)[C@H]2O [Compound 2w]" measuredquantity=IC50 measured="> 100 µM"

For the next question, use this compound.
IC50 recorded for this compound, CC1(C)CCC(O)C23COC(O)(C(O)C12)C12C(=O)C(=Cc4ccc(F)cc4)C(CCC31)C2O (stereo not shown) [Compound 2c] , is 12.6 µM

###

- Tested on: AGS
- assayRemarks: MTT antiproliferative assay, AGS cells
- Assay type: cell-based, human
- assayContext: Homo sapiens, AGS, 48 h, MTT, means ± SD, n = 3
measuredQuantity: log10 of IC50 (log10 of the value in µM)
Values reflect log10 of reported IC50 (µM).

Dear reader, for each entry below, please note its log10 of IC50.
1. CC(=O)Nc1ccc(/C=C2/C(=O)[C@]34[C@H](O)[C@H]2CC[C@H]3C23CO[C@]4(O)[C@@H](O)[C@@H]2C(C)(C)CC[C@@H]3O)cc1 [Compound 2t]
2. Cc1cccc(/C=C2/C(=O)[C@]34[C@H](O)[C@H]2CC[C@H]3C23CO[C@]4(O)[C@@H](O)[C@@H]2C(C)(C)CC[C@@H]3O)c1 [Compound 2g]
3. CC(C)=CCOc1ccc(/C=C2/C(=O)[C@]34[C@H](O)[C@H]2CC[C@H]3C23CO[C@]4(O)[C@@H](O)[C@@H]2C(C)(C)CC[C@@H]3O)cc1 [Compound 2p]
4. CC1(C)CC[C@H](O)C23CO[C@](O)([C@@H](O)[C@H]12)[C@]12C(=O)/C(=C/c4ccc(N)cc4)[C@H](CC[C@@H]31)[C@H]2O [Compound 2s]
5. CC1(C)CCC(O)C23COC(O)(C(O)C12)C12C(=O)C(=Cc4ccc(F)cc4)C(CCC31)C2O (stereo not drawn) [Compound 2c]
6. C=C1C(=O)[C@]23[C@H](O)[C@H]1CC[C@H]2[C@@]12CO[C@]3(O)[C@@H](O)[C@@H]1C(C)(C)CC[C@@H]2O [Oridonin]

1: 1.34; 2: 1.03; 3: 0.61; 4: 1.71; 5: 1.16; 6: 0.92
